- ASSAYED_TARGET: human/mouse CD137 chimera 1550 (human/mouse chimera) (UniProt Q07011)
- PROCEDURE_DETAILS: flow cytometry, transfected 293-F cells
PARAMETER: relative MFI normalized to full-length human CD137
Lab note: jot the number down without any unit.

Previously resolved entries follow.
1202/1203 (antibody, V domains shown) VH: EVQLLESGGGLVQPGGSLRLSCAASGFTFYGSSMSWVRQAPGKGLEWVSSIYYGSSGTYYADSVKGRFTISRDNSKNTLYLQMNSLRAEDTAVYYCARSYYGYFDYWGQGTLVTVSS VL: DIQMTQSPSSLSASVGDRVTITCRASQSISSYLNWYQQKPGKAPKLLIYAASSLQSGVPSRFSGSGSGTDFTLTISSLQPEDFATYYCQQYYTVVPFTFGQGTKLEIK ... 0.05
1204/1205 (antibody, V domains shown) VH: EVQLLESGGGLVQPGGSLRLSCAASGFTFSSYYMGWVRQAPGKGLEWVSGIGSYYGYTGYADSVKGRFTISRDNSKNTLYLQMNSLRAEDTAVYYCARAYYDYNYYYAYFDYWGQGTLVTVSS VL: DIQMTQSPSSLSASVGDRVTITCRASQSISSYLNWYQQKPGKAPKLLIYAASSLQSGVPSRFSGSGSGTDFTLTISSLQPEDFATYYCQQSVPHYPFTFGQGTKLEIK ... 0.07
1618/1619 (antibody, V domains shown) VH: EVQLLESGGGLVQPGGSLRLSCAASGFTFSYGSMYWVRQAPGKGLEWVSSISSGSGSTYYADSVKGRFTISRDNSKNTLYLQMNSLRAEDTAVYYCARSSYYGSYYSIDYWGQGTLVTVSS VL: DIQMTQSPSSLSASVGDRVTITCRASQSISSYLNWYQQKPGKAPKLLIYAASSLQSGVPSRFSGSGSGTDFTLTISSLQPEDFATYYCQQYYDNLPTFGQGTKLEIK ... 0.11

In: Request the reported relative MFI normalized to full-length human CD137 associated with 1626/1627 (antibody, V domains shown) VH: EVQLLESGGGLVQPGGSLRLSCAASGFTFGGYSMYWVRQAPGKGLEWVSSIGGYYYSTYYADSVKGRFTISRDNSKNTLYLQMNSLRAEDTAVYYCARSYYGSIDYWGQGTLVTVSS VL: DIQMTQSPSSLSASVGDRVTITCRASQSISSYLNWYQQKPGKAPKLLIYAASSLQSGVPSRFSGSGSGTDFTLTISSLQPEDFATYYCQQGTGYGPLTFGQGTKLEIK
Out: 0.1

Origin of values: patent US20220213213A1
